# IC50 at 48 h values compiled below
method summary: MTT cytotoxicity assay, KATOIII
Type: cell-based, human
particulars: human, KATOIII stomach cancer cells; KATOIII stomach cancer, 48 h, MTT
result type: IC50 at 48 h (µM)

{"query smiles": "COc1cc(/C=C2/C(=O)O[C@]34C=C[C@@H]5C(C(=O)O)=CO[C@H](O[C@@H]23)[C@@H]54)ccc1O", "val": 24.8}
{"query smiles": "COC(=O)C1=CO[C@@H]2O[C@H]3/C(=C\\c4ccc(O)c(OC)c4)C(=O)O[C@]34C=C[C@H]1[C@H]24", "val": 0.21}

* * *

method summary: MTT cytotoxicity assay, LoVo
Type: cell-based, human
particulars: human, LoVo colon cancer cells; LoVo colon cancer, 48 h, MTT

{"query smiles": "COC(=O)C1=CO[C@@H]2O[C@H]3/C(=C\\c4ccc(O)c(OC)c4)C(=O)O[C@]34C=C[C@H]1[C@H]24", "IC50 at 48 h / µM": 0.11}
{"query smiles": "COc1cc(/C=C2/C(=O)O[C@]34C=C[C@@H]5C(C(=O)O)=CO[C@H](O[C@@H]23)[C@@H]54)ccc1O", "IC50 at 48 h / µM": 30.4}

* * *

method summary: MTT cytotoxicity assay, Caco2
Type: cell-based, human
particulars: human, Caco2 colon cancer cells; Caco2 colon cancer, 48 h, MTT
# IC50 at 48 h values compiled below
result type: IC50 at 48 h (µM)

{"molecule": "COc1cc(/C=C2/C(=O)O[C@]34C=C[C@@H]5C(C(=O)O)=CO[C@H](O[C@@H]23)[C@@H]54)ccc1O [ML-2-3]", "result type": "IC50 at 48 h", "val": 44.6}
{"molecule": "COC(=O)C1=CO[C@@H]2O[C@H]3/C(=C\\c4ccc(O)c(OC)c4)C(=O)O[C@]34C=C[C@H]1[C@H]24 [ML-2-2]", "result type": "IC50 at 48 h", "val": 1.35}

* * *

method summary: MTT cytotoxicity assay, HCT-15
Type: cell-based, human
particulars: human, HCT-15 colon cancer cells; HCT-15 colon cancer, 48 h, MTT
# IC50 at 48 h values compiled below
result type: IC50 at 48 h (µM)

{"query smiles": "COc1cc(/C=C2/C(=O)O[C@]34C=C[C@@H]5C(C(=O)O)=CO[C@H](O[C@@H]23)[C@@H]54)ccc1O", "cmp": ">", "val": 50}
{"query smiles": "COC(=O)C1=CO[C@@H]2O[C@H]3/C(=C\\c4ccc(O)c(OC)c4)C(=O)O[C@]34C=C[C@H]1[C@H]24", "cmp": "=", "val": 16}

* * *

method summary: MTT cytotoxicity assay, HF-19
Type: cell-based, human
particulars: human, HF-19 normal fibroblast cells; HF-19 normal fibroblast, 48 h, MTT
result type: IC50 at 48 h

{"query smiles": "COc1cc(/C=C2/C(=O)O[C@]34C=C[C@@H]5C(C(=O)O)=CO[C@H](O[C@@H]23)[C@@H]54)ccc1O", "val": "> 50 µM"}
{"query smiles": "COC(=O)C1=CO[C@@H]2O[C@H]3/C(=C\\c4ccc(O)c(OC)c4)C(=O)O[C@]34C=C[C@H]1[C@H]24", "val": "12.1 µM"}

* * *

Tested on: GUTat 3.1 strain of the bloodstream forms of T. b. brucei parasites
method summary: Alamar Blue assay (trypanocidal activity)
Type: cell-based, Trypanosoma brucei brucei
particulars: Trypanosoma brucei, 48 h, T. b. brucei, Alamar Blue, 48 h; read-out: IC50 of anti-trypanosomal activity
pIC50: −log10 of the molar value.

{"query smiles": "COC(=O)C1=CO[C@@H]2O[C@H]3/C(=C\\c4ccc(O)c(OC)c4)C(=O)O[C@]34C=C[C@H]1[C@H]24", "pIC50": 5.90}

* * *

method summary: MTT cytotoxicity assay, HL-60
Format: cell-based, human
particulars: human, HL-60 leukemia cells; HL-60 leukemia, 48 h, MTT

{"compound": "COc1cc(/C=C2/C(=O)O[C@]34C=C[C@@H]5C(C(=O)O)=CO[C@H](O[C@@H]23)[C@@H]54)ccc1O [ML-2-3]", "units text": "µM", "IC50 at 48 h": 25.5}
{"compound": "COC(=O)C1=CO[C@@H]2O[C@H]3/C(=C\\c4ccc(O)c(OC)c4)C(=O)O[C@]34C=C[C@H]1[C@H]24 [ML-2-2]", "units text": "µM", "IC50 at 48 h": 3.87}

* * *

method summary: MTT cytotoxicity assay, THP-1
Type: cell-based, human
particulars: human, THP-1 leukemia cells; THP-1 leukemia, 48 h, MTT
Experimental: The cytotoxic activity of natural products against mammalian cells is an important point in the search for active compounds with biological activity. […] The viabilities of cells were determined with the MTT (3-(4,5-dimethylthiazol-2-yl)-2-5-diphenyltetrazolium bromide) assay. The selectivity index (SI) was determined using the following equation: IC50 against human cells/IC50 against T. brucei. […]
result type: IC50 at 48 h (µM)

{"molecule": "COC(=O)C1=CO[C@@H]2O[C@H]3/C(=C\\c4ccc(O)c(OC)c4)C(=O)O[C@]34C=C[C@H]1[C@H]24 [ML-2-2]", "result type": "IC50 at 48 h", "val": 6.98}
{"molecule": "COc1cc(/C=C2/C(=O)O[C@]34C=C[C@@H]5C(C(=O)O)=CO[C@H](O[C@@H]23)[C@@H]54)ccc1O [ML-2-3]", "result type": "IC50 at 48 h", "val": 15.4}

* * *

System: GUTat 3.1 strain of the bloodstream forms of T. b. brucei parasites
method summary: Alamar Blue assay (trypanocidal activity)
Format: cell-based, Trypanosoma brucei brucei
particulars: T. b. brucei, Alamar Blue, 48 h; read-out: IC50 of anti-trypanosomal activity

{"query smiles": "COc1cc(/C=C2/C(=O)O[C@]34C=C[C@@H]5C(C(=O)O)=CO[C@H](O[C@@H]23)[C@@H]54)ccc1O", "target desc": "GUTat 3.1 strain of the bloodstream forms of T. b. brucei parasites", "units text": "µM", "IC50": 3.75}

Origin of the recorded values: patent US20150191484A1
